Where these numbers come from: patent EP0384722A1

# assay explanation: Comparison of bioavailability of Compound A and Trimethoprim (TMP) administered by i/v injection, dogs
# Format: in vivo
# condition parameters: male, beagle, serum, intravenous; dog M; 3 hours post inj.; i/v injection at 2 mg/kg; read-out: Serum conc. of Compound A
reported property: concentration at 3 h (ng/mL)
# value in ng/mL; strip the unit string

In: // lookup concentration at 3 h for Cc1cc(Cc2cnc(N)nc2N)c2cccnc2c1N(C)C [Compound A]
Out: 270

----------
# assay explanation: Comparison of bioavailability of Compound A and Trimethoprim (TMP) administered by i/v injection, cats
# Assay type: in vivo
# condition parameters: female, cat, serum, intravenous, 2 mg/kg, cat 3; 0 hours post inj.; i/v injection at 2 mg/kg; read-out: Serum conc. of Compound A
reported property: concentration at 0 h (ng/mL)
# value in ng/mL; strip the unit string

In: // lookup concentration at 0 h for "Cc1cc(Cc2cnc(N)nc2N)c2cccnc2c1N(C)C"
Out: 0
